Test system: ZR-75-1 cells
Assay: Caspase cascade activation (N-(Ac-DEVD)-N'-ethoxycarbonyl-R110 fluorogenic substrate) in ZR-75-1 cells
Type: cell-based, Human
Settings: caspase activity: ratio of net RFU of test compound to control; ZR-75-1, 48 h incubation
Description: Human breast cancer cell lines T-47D and ZR-75-1 were grown according to media component mixtures designated by American Type Culture Collection +10% FCS (Invitrogen Corporation, Life Technologies division), in a 5% CO2-95% humidity incubator at 37° C. […] After the 3 h incubation, the samples were read for fluorescence as above (T=3 h). The Relative Fluorescence Unit values (RFU) were used to calculate the sample readings as follows: […]
Parameter ZR Ratio 48 hr: see the listing below.
VALUE_KIND: ZR Ratio 48 hr

> print(dat)
                            smiles.structure  data.value
 1  COc1cc(Nc2cc(C(F)(F)F)nc(-c3cnccn3)n2)c(OC)cc1Cl.Cl         8.6
 2  COc1ccc(C)c(Nc2cc(-c3ccccn3)nc(-c3ccccn3)n2)c1         3.9
 3  Oc1ccc(Cl)c(Nc2cc(C(F)(F)F)nc(-c3cccnc3)n2)c1         2.4
 4  COc1ccc(C)cc1Nc1cc(-c2ccccn2)nc(-c2ccccn2)n1.Cl         2.9
 5  COc1cc(Nc2cc(C(F)(F)F)nc(-c3ccncc3)n2)cc(OC)c1         5.1
 6  CSc1cccc(Nc2cc(C(F)(F)F)nc(-c3ccccn3)n2)c1         4.9
 7  COc1ccc(Br)c(Nc2cc(C(F)(F)F)nc(-c3cccnc3)n2)c1         5.3
 8  COc1cc(Nc2cc(C(F)(F)F)nc(-c3ccncc3)n2)c(OC)cc1Cl.Cl         6.0
 9  COc1cc(C)c(Nc2cc(C(F)(F)F)nc(-c3cccnc3)n2)cc1OC         6.4
10  COc1ccc(C(F)(F)F)cc1Nc1cc(C(F)(F)F)nc(-c2cccnc2)n1         9.8
11  Cc1ccc(F)cc1Nc1cc(C(F)(F)F)nc(-c2cccnc2)n1         8.0
12  COc1cc(Nc2cc(C(F)(F)F)nc(-c3cccnc3)n2)c(C(C)=O)cc1OC         1.5
13  COc1cc(C)c(Nc2cc(C(F)(F)F)nc(-c3ccncc3)n2)cc1OC.Cl         7.9
14  COc1ccc(Cl)c(Nc2cc(C(F)(F)F)nc(-c3ccccn3)n2)c1         8.6
15  Cc1cc(C)cc(Nc2cc(C(F)(F)F)nc(-c3cccnc3)n2)c1         9.9
16     COc1ccc(Nc2cc(C)nc(-c3ccccn3)n2)cc1OC         1.9
17        COc1cccc(Nc2nc(-c3ccccn3)ncc2OC)c1         7.8
18   COc1ccc(Cl)c(Nc2cc(C)nc(-c3ccccn3)n2)c1         7.2
19       COc1cccc(Nc2cc(C)nc(-c3ccccn3)n2)c1         3.3

---

test system: T47D cells; test: Clonogenic survival of T47D cells; format: cell-based; conditions: Homo sapiens, 48 h treatment, colonies after 7-10 days, read-out: IC50 inhibition of clonogenic survival (colony forming ability), T47D
VALUE_KIND: IC50

> print(dat)
                                   molecule  data.value
1  COc1cccc(Nc2cc(C(F)(F)F)nc(-c3ccccn3)n2)c1 [Compound A]     ~100 nM
